Sourced from patent US20200190192A1

# Tested System: T1, cynomolgus Tim-3 expressed on CHO cells (cynomolgus monkey)
# T1 construct: also called cTim-3; Cyno Tim-3 (CHO)
# T1 chain: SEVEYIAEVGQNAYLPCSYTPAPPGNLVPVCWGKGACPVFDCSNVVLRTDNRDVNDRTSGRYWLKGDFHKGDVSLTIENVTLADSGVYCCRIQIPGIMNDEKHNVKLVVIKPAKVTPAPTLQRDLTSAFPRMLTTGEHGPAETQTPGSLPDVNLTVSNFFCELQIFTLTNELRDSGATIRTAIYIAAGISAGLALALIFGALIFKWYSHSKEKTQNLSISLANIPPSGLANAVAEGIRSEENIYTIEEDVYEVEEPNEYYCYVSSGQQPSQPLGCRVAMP
# Method Notes: flow cytometry, CHO-cyno Tim-3 cells
Readout Type: pKd
Scale: negative log10 of molar concentration, which is what pKd denotes.

| Binder | pKd |
| --- | --- |
| h22E11-VK2-28 × h22E11-VH5-51 (antibody, V domains shown, Humanized m22E11) VH: EVQLVQSGAEVKKPGESLKISCKVSGFSLTSYGVHWVRQMPGKGLEWLVVIWSDGSTTYNPSFQGQVTISKDKSISTVYLQWSSLKASDTAMYYCARQGGYRYDDAMDYWGQGTLVTVSS VL: DIVLTQSPLSLPVTPGEPASISCKASQSVDYDGNSYVNWYLQKPGQSPQLLIYAASNLESGVPDRFSGSGSGTDFTLKISRVEAEDVGVYYCQQSNEDPYTFGQGTKVEIK | 8.64 |
| h22E11-VK4-1 × h22E11-VH3-23 (antibody, V domains shown, Humanized m22E11) VH: EVQLLESGGGLVQPGGSLRLSCAVSGFSLTSYGVHWVRQAPGKGLEWLVVIWSDGSTTYNDSVKGRFTISKDNSKNTVYLQMNSLRAEDTAVYYCARQGGYRYDDAMDYWGQGTLVTVSS VL: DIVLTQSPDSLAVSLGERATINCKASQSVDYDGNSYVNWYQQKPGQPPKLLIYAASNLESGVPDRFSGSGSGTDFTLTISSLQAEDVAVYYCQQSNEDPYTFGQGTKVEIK | 8.34 |

The recorded pKd for entry h22E11-5-IgG-LC × h22E11-VH1-69 (antibody, V domains shown, Humanized m22E11) VH: QVQLVQSGAEVKKPGSSVKVSCKVSGFSLTSYGVHWVRQAPGQGLEWLVVIWSDGSTTYNQKFQGRVTITKDESTSTVYMELSSLRSEDTAVYYCARQGGYRYDDAMDYWGQGTLVTVSS VL: EIVLTQSPGTLSLSPGERATLSCKASQSVDYDGNSYVAWYQQKPGQAPRLLIYAASNLESGIPDRFSGSGSGTDFTLTISRLEPEDFAVYYCQQSNEDPYTFGQGTKVEIK equals 8.52

The recorded pKd for h22E11-VK4-1 × h22E11-VH1-69 (antibody, V domains shown, Humanized m22E11) VH: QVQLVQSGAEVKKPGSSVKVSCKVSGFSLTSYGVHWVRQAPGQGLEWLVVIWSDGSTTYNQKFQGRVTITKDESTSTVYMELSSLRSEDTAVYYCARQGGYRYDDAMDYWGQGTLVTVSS VL: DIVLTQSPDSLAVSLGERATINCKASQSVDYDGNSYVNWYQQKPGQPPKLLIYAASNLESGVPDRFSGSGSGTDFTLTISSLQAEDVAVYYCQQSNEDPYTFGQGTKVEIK is 8.60

h22E11-5-IgG-LC × h22E11-VH3-23 (antibody, V domains shown, Humanized m22E11) VH: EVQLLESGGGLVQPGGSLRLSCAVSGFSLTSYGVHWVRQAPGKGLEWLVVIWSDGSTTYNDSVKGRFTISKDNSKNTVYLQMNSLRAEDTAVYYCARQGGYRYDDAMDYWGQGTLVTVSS VL: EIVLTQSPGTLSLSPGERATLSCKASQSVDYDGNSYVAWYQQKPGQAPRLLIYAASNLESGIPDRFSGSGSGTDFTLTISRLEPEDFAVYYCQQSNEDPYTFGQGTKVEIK yielded pKd of 7.88

Please fill in: pKd reported for h22E11-VK2-28 × h22E11-VH3-23 (antibody, V domains shown, Humanized m22E11) VH: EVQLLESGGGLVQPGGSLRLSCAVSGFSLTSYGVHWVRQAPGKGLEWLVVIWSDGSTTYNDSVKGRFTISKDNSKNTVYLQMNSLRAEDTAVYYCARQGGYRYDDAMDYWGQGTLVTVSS VL: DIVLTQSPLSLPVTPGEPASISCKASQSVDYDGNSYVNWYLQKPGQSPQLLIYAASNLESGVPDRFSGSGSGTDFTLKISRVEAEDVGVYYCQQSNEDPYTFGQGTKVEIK = 8.27

For h22E11-VK3-11 × h22E11-VH3-23 (antibody, V domains shown, Humanized m22E11) VH: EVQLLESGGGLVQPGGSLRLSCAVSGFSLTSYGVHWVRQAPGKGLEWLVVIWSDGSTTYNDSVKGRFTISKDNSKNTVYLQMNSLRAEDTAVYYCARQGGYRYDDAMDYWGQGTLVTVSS VL: EIVLTQSPATLSLSPGERATLSCKASQSVDYDGNSYVNWYQQKPGQAPRLLIYAASNLESGIPARFSGSGSGTDFTLTISSLEPEDFAVYYCQQSNEDPYTFGQGTKVEIK the binder record lists pKd as 8.16

Lab note: h22E11-VK2-28 × h22E11-VH1-69 (antibody, V domains shown, Humanized m22E11) VH: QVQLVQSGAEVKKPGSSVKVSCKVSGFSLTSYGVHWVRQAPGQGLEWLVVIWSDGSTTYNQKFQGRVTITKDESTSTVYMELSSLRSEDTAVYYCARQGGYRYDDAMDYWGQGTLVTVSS VL: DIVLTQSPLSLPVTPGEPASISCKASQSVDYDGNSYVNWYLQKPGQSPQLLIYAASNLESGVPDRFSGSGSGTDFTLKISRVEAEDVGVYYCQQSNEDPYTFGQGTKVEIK gave pKd of 8.77

# pKd (binder: h22E11-VK4-1 × h22E11-VH5-51 (antibody, V domains shown, Humanized m22E11) VH: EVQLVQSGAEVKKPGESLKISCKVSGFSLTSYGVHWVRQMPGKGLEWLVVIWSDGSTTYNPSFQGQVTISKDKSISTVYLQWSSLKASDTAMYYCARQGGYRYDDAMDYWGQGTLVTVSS VL: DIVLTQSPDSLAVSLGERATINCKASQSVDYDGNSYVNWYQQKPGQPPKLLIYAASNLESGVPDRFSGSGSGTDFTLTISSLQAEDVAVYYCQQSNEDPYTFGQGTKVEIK ) is 8.72

// pKd value for h22E11-VK3-11 × h22E11-VH5-51 (antibody, V domains shown, Humanized m22E11) VH: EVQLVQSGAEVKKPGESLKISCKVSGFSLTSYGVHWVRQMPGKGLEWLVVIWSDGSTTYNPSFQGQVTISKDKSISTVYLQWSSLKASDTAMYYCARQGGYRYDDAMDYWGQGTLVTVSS VL: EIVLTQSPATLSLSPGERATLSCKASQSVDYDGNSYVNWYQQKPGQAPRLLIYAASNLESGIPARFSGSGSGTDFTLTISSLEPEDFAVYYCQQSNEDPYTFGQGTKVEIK : 8.57
